Every entry's value here was drawn from patent US20250250357A1.

- assay-system: T1, human MSLN-FL-his protein (human, UniProt Q13421 296-580)
- T1 construct: made in HEK293E cells, purified on nickel column; also called hMSLN-FL-his; human MSLN full-length protein; not shown: His tag
- T1 sequence (Q13421 other isoform, or with tags, fused parts or gaps): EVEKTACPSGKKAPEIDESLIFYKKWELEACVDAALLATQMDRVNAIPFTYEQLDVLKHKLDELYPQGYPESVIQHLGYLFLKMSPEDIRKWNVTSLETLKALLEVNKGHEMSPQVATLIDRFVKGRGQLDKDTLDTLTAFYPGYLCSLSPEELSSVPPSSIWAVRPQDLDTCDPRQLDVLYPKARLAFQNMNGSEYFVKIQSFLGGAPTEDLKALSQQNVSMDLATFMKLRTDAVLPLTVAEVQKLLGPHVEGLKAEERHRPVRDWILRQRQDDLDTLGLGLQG
- procedure-details: competitive ELISA; coated 2ug/ml Tab142 (R1)
attribute-measured: competition rate (%)
Form entry: value (%) — number only.

Completed entries (count: 3):
binder: S009-F4-127.10 (antibody, human IgG1, kappa, V domains shown, human-murine chimeric antibody, human IgG1/kappa constant regions) VH: EVQLQQSGPVLVKPGASVKMSCKASGYTFTDYYMNWVKQSHGKSPEWIGVINPYNDVISYNQKFKGKATLTVDKSSSTAYMELNSLTSEDSAVYYCANYGSSYYAMDYWGQGTSVTVSS VL: DVVMTQTPLSLSVSLGDQASISCRSSQSLVHSNGNTYLQWSLQKPGQSPNLLIYKVSNRFSGVPDRFSGSGSGTDFTLKISRVEAEDLGVYFCSQTTHVPFTFGGGTKLEIRR
competition rate (%): -27

binder: S009-F3.45.21 (antibody, human IgG1, kappa, V domains shown, human-murine chimeric antibody, human IgG1/kappa constant regions) VH: DVQLQESGPGLVKPSQSLSLTCSVTGDSITSGYYWNWIRQFPGNKLEWMGFIRFDGTNNYNPSLKNRISITRDTSKNQFFLKLNSVTTEDTATYYCAREGSYAPAWFAYWGQGTLVTVSA VL: QIVLTQSPAIMSASPGEKVTMTCSASSSLSYMYWYQQKPGSSPRLLIYDTSNLASGVPVRFSGSGSGTSYSLTISRMEAEDAATYYCQQWSSYPPTFGGGTKLEIKR
competition rate (%): -38

binder: S009-F3.80.22 (antibody, human IgG1, kappa, V domains shown, human-murine chimeric antibody, human IgG1/kappa constant regions) VH: QVQLQQSGAELVRPGASVTLSCKASGYTFTDYEIHWVKQTPVHGLEWIGAFDPEIGGSAYNQKFKDRATLTADKSSSTAYMELHSLTAEDSAVYYCTDYYGSSSGYFDVWGTGTTVTVSS VL: DVVMTQTPLSLPVSLGDQASISCRSSQSLEHNNGNTYLHWFLHKPGQSPKLLIYKVSNRFSGVPDRFSGSGSGTDFTLKISRVEAEDLGVYFCSQSTHVPFTFGSGTKLEIKR
competition rate (%): 81

Q. For the binder S009-F3.74.20 (antibody, human IgG1, kappa, V domains shown, human-murine chimeric antibody, human IgG1/kappa constant regions) VH: RVQLQQSGAELVRPGASVTLSCKASGYTFTDSEMHWVKQTPVHGLEWIGAIDPEIDGTAYNQNFRDKAILTADKSSSTAYMELRSLTSEDSAVYYCTTYFGSGYGYFDVWGTGTTVTVSS VL: DVVMTQTPLSLSVSLGDQASISCRSSQSLVYSNGNTYLHWFLQKPGQSPKLLIYKVSNRFSGVPDRFSGSGSGTDFTLKINRVEAEDLGVYFCSQSTHIPFTFGAGTKLELKR , give its measured competition rate value.
A. -28
